# METHOD_SUMMARY: P. aeruginosa biofilm formation inhibitors, primary screen, PAO1 strain, BacTiter-Glo luminescence, LB-PBS (AID 1144)
# ASSAY_SETUP: 12 h, higher = more signal
READOUT_TYPE: z-score
// no unit, no text: just the number

Example entries and their recorded answers appear below.
[
  {
    "COMPOUND": "C=CCC(OC(C)=O)[C@@H]1[C@@H](N(Cc2cccc3ccccc23)C(=O)c2ccc(-c3ccccc3)cc2)c2cc(OCCCO)ccc2N1C(=O)c1ccc2ccccc2c1 (some centres undefined)",
    "QUANTITATIVE_RESULT": -0.815
  },
  {
    "COMPOUND": "O=C1C[C@@](C(=O)NCCN2CCOCC2)(c2ccc([N+](=O)[O-])cc2)[C@@H](c2ccc(CO)cc2)N1CC12CC3CC(CC(C3)C1)C2",
    "QUANTITATIVE_RESULT": 0.881
  }
]

Exercise: Need z-score of C=C(C)[C@@H]1CC=C(C(O)C2C=CC3C(=O)N(C)C(=O)C3N2Nc2ccccc2)CC1 (some centres undefined) , thanks.
Key: -0.309

Exercise: Need z-score of `CN(C)CCCCCCNC(=O)[C@@H]1C[C@@H]2C(=O)N[C@@H](Cc3ccccc3)C(=O)N2[C@@H]1c1ccc(O)cc1` , thanks.
Key: -0.0157

Exercise: Need z-score of `COc1ccc(C#Cc2ccc3c(c2)[C@]2(C(=O)N3)[C@H](c3ccccc3OCCO)N3[C@H](c4ccccc4)[C@H](c4ccccc4)OC(=O)[C@H]3[C@@H]2C(=O)Nc2nc3ccccc3s2)cc1` , thanks.
Key: -0.726

Exercise: Need z-score of `CC(C)NC(=O)[C@@H]1c2ccccc2C(=O)N(C2Cc3ccccc3C2)[C@H]1c1ccc(CO)cc1` , thanks.
Key: -0.737

Exercise: Need z-score of `CC(C)C(=C=CC[C@@H](O)c1ccc(OCCO)cc1)C[C@@H](O)COCc1ccccc1` , thanks.
Key: -0.933

Exercise: Need z-score of CC(CO)N1C(=O)[C@@H]2C3C(=O)OCCC/C=C\[C@H]3OC23C=CCN(C(C)(C)C)C(=O)[C@@H]13 (some centres undefined) , thanks.
Key: -0.818

Exercise: Need z-score of CC(C)=CCCC(C)=CC(O)C1C=CC2C(=O)N(C)C(=O)C2N1Nc1ccccc1 (centres undefined) , thanks.
Key: -0.545

Exercise: Need z-score of C=CCC(OC(C)=O)[C@@H]1[C@@H](N(Cc2ccc(-c3cccc(C(F)(F)F)c3)o2)C(=O)c2ccc(C)cc2)c2cc(OCCCO)ccc2N1C(=O)Cc1ccc2ccccc2c1 (some centres undefined) , thanks.
Key: -0.568

Exercise: Need z-score of CC(C)C(CO)N1C(=O)[C@@H]2C3C(=O)OCCC/C=C\[C@H]3OC23C=CCN(CCN2CCOCC2)C(=O)[C@@H]13 (some centres undefined) , thanks.
Key: 0.723

Exercise: Need z-score of `C[N+](C)(C)CCCC[C@@H]1NC(=O)[C@H]2C[C@@H](C(=O)NCCCCCCNC(=O)CS)[C@@H](c3cccc(OCCO)c3)N2C1=O` , thanks.
Key: -0.635

Exercise: Need z-score of `COc1ccccc1CN1C(=O)c2ccccc2[C@@]2(Cc3ccccc3N(CC(C)C)C2=O)[C@@H]1c1ccc(CO)cc1` , thanks.
Key: 0.8

Exercise: Need z-score of `O=C1N[C@@H](Cc2ccccc2)C(=O)N2[C@@H]1C[C@@H](C(=O)O)[C@H]2c1cccc(OCCO)c1` , thanks.
Key: -0.965

---

# METHOD_SUMMARY: PSAC antagonists in infected red cells, primary screen, cell-based, P. falciparum Indochina, OD700, 1 h (AID 1154)
# ASSAY_SETUP: P. falciparum Indochina infected RBC osmotic lysis, higher = more signal, called active from +8 up or from −8 down
The label depends only on z-score: 1.0 if it is at least 1, 0.0 if it is smaller.

Here are 5 compounds together with their reported answers.
[
  {
    "COMPOUND": "CN1C(=O)C2C=CC(C(O)c3ccco3)N(Nc3ccccc3)C2C1=O (centres undefined)",
    "CAT": 0.0
  },
  {
    "COMPOUND": "O=C1C[C@]2(c3ccc([N+](=O)[O-])cc3)C(=O)N(CC(F)(F)F)c3cc(CO)ccc3[C@H]2N1C1CCCCC1",
    "CAT": 0.0
  },
  {
    "COMPOUND": "CCOC(=O)C[C@H]1[C@H](OC(=O)c2ccc(C(=O)c3ccccc3)cc2)[C@@H](NC(=O)CC(C)C)c2cc(OCCCO)ccc2N1C(=O)c1ccc2ccccc2n1",
    "CAT": 1.0
  },
  {
    "COMPOUND": "C=C[C@H](CO)NS(=O)(=O)c1ccc(Br)cc1",
    "CAT": 0.0
  },
  {
    "COMPOUND": "CCCC[C@@H]1C[C@H]1[C@@H](NC(=O)c1cccs1)c1ccc(-c2ccccc2)cc1",
    "CAT": 1.0
  }
]

Exercise: API: above_or_equal(metric=z-score, cutoff=1) for item `COCCCNC(=O)[C@@H]1c2ccccc2C(=O)N(Cc2ccccc2Cl)[C@H]1c1ccc(CO)cc1`
Key: 1.0

Exercise: API: above_or_equal(metric=z-score, cutoff=1) for item `COC(=O)[C@@]1(Cc2ccc(OC)cc2)[C@H]2c3cc(C(=O)N(C)C)n(Cc4ccc(S(C)(=O)=O)cc4)c3C[C@H]2CN1C(=O)c1ccccc1`
Key: 1.0

Exercise: API: above_or_equal(metric=z-score, cutoff=1) for item `CO[C@H]1O[C@H](CO)[C@@H](OC(=O)Nc2ccc(C(F)(F)F)cc2)[C@H](OC(=O)Nc2ccc3c(c2)OCO3)[C@@H]1OC(=O)Nc1ccc2c(c1)OCO2`
Key: 1.0

Exercise: API: above_or_equal(metric=z-score, cutoff=1) for item `O=C1O[C@@H](c2ccccc2)[C@@H](c2ccccc2)N2[C@@H](c3ccccc3OCCO)[C@]3(C(=O)Nc4ccccc43)[C@@H](C(=O)Nc3nc4ccccc4s3)[C@H]12`
Key: 1.0

Exercise: API: above_or_equal(metric=z-score, cutoff=1) for item CCN(CC)c1ccc(N2CC=CC34O[C@@H]5C=CCCOC(=O)C5[C@H]3C(=O)N(CCCCCCO)[C@@H]4C2=O)cc1 (some centres undefined)
Key: 1.0

Exercise: API: above_or_equal(metric=z-score, cutoff=1) for item CN1C=C(C(=O)OCCS(C)(=O)=O)C(C(=O)OCCS(C)(=O)=O)=CC(c2ccc(CO)cc2)=CC1C1CC1 (centres undefined)
Key: 1.0

---

# TESTED_TARGET: Fibroblast growth factor 10 (Homo sapiens)
# METHOD_SUMMARY: FGF10 binders on small-molecule microarrays, primary screen, biochemical, small-molecule microarray, 635 nm fluorescence (AID 1102)
# ASSAY_SETUP: FGF10 binding, fluorescence 635 nm, higher = more signal
The label depends only on composite z-score: Yes if it is at least 0.6, No if it is smaller.

[
  {
    "COMPOUND": "COc1ccc(CCNC(=O)[C@@H]2c3ccccc3C(=O)N(Cc3ccccc3Cl)[C@H]2c2ccc(CO)cc2)cc1",
    "CAT": "No"
  },
  {
    "COMPOUND": "CCOC(=O)C[C@H]1[C@H](OC(=O)c2ccccc2-c2ccccc2)[C@@H](NC(=O)CC(C)C)c2cc(OCCCO)ccc2N1C(=O)Cc1ccc(OC)cc1",
    "CAT": "No"
  },
  {
    "COMPOUND": "COCCOC(=O)N1C(=O)[C@@]2(c3cc(C#CCCO)ccc31)[C@H](C(N)=O)[C@H]1C(=O)O[C@H](c3ccccc3)[C@H](c3ccccc3)N1[C@@H]2c1ccc(O)cc1",
    "CAT": "No"
  },
  {
    "COMPOUND": "C=C(C)[C@@H]1CC=C(C(O)C2C=CC3C(=O)N(C)C(=O)C3N2Nc2ccccc2)CC1 (some centres undefined)",
    "CAT": "Yes"
  },
  {
    "COMPOUND": "COc1ccc(CCNC(=O)[C@@]2(Sc3ccc(C)cc3)CC(=O)N(C(C)C)[C@@H]2c2ccc(CO)cc2I)cc1",
    "CAT": "No"
  }
]

Exercise: API: above_or_equal(metric=composite z-score, cutoff=0.6) for item CCCc1cc2c(n1Cc1cc(F)cc(F)c1)C(C)C1CN(C(=O)c3ccccc3)C(C)(C(=O)OC)C21 (centres undefined)
Key: Yes

Exercise: API: above_or_equal(metric=composite z-score, cutoff=0.6) for item `CC(C)NC(=O)[C@@]1(c2ccc([N+](=O)[O-])cc2)CC(=O)N(C2CCCCC2)[C@@H]1c1ccc(CO)cc1I`
Key: No

Exercise: API: above_or_equal(metric=composite z-score, cutoff=0.6) for item CC(C)C(O)C1C=CC2C(=O)N(c3ccccc3)C(=O)C2N1Nc1ccc([N+](=O)[O-])cc1 (centres undefined)
Key: Yes

Exercise: API: above_or_equal(metric=composite z-score, cutoff=0.6) for item CN1C(=O)C2C=CC(C(O)c3ccccc3)N(N(c3ccccc3)c3ccccc3)C2C1=O (centres undefined)
Key: No

Exercise: API: above_or_equal(metric=composite z-score, cutoff=0.6) for item `NC(=O)NCC#Cc1ccc2c(c1)[C@]1(C(=O)N2)[C@H](c2ccc(O)cc2)N2[C@H](c3ccccc3)[C@H](c3ccccc3)OC(=O)[C@H]2[C@@H]1C(=O)O`
Key: No

Exercise: API: above_or_equal(metric=composite z-score, cutoff=0.6) for item `COc1ccc([C@H]2OC[C@@H]3C[C@@H](Cc4ccccc4)C(=O)N32)cc1`
Key: Yes

Exercise: API: above_or_equal(metric=composite z-score, cutoff=0.6) for item `C=CCOC(=O)[C@@H]1[C@H]2C(=O)O[C@H](c3ccccc3)[C@H](c3ccccc3)N2[C@H](c2ccc(OCCOC(=O)[C@H]3C[C@H]4C(=O)N5CCC[C@H]5C(=O)N4[C@H]3c3ccc(O)cc3)cc2)[C@@]12C(=O)Nc1ccc(I)cc12`
Key: Yes

Exercise: API: above_or_equal(metric=composite z-score, cutoff=0.6) for item [N-]=[N+]=Nc1ccccc1[C@H]1OC(c2ccc(OCCCO)cc2)=N[C@@]1(CCS(=O)(=O)c1ccccc1)C(=O)NCC(O)CO (some centres undefined)
Key: Yes

Exercise: API: above_or_equal(metric=composite z-score, cutoff=0.6) for item CN1C=C(C(=O)OCCS(C)(=O)=O)C(C(=O)OCCS(C)(=O)=O)=CC(c2ccc(CO)cc2)=CC1C1CC1 (centres undefined)
Key: No
